Sequence of the target: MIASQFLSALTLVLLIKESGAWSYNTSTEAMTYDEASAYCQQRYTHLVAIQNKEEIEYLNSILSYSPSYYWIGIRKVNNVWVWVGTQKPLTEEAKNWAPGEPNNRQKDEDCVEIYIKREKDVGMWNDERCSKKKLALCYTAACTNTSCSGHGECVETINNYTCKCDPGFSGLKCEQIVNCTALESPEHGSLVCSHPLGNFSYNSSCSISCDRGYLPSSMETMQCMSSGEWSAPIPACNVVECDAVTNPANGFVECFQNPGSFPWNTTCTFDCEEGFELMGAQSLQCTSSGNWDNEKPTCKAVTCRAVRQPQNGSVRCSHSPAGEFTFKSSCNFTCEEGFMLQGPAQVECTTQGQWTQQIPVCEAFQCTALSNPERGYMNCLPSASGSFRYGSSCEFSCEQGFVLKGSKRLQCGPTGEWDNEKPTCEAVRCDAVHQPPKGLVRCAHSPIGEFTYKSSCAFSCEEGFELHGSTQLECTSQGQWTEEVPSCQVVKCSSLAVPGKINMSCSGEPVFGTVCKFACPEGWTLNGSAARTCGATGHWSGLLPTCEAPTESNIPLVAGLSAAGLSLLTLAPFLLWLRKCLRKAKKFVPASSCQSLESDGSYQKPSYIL
Entries annotated with measured IC50

Example results:
- compound: "COc1ccc(C2(C(=O)O)CCCCC2)cc1[C@H]1O[C@@H](C)[C@H](O)[C@H](O)[C@@H]1O"
  IC50: "> 1000 µM"
- compound: "COc1cc(CC(=O)O)c(C2OC(C)C(O)C(O)C2O)c(OC)c1OC (stereo not given)"
  IC50: "> 1000 µM"
- compound: "COc1ccc(CC(=O)O)cc1C1OC(C)C(O)C(O)C1O (stereo not given)"
  IC50: "> 1000 µM"

Entry under review: COc1ccc(C2(C(=O)O)CCCCC2)cc1[C@H]1O[C@@H](C)[C@@H](O)[C@H](O)[C@@H]1O . Reported IC50?
> 1000 µM

Tell me the measured IC50 of COc1ccc(C2(C(=O)O)CCCCC2)cc1C1OCC(O)C(O)C1O (stereo not given) , please.
> 1000 µM

Entry source: ChEMBL document CHEMBL1130683
